TESTED_TARGET: Upc2 (UniProt Q12151)
Sequence: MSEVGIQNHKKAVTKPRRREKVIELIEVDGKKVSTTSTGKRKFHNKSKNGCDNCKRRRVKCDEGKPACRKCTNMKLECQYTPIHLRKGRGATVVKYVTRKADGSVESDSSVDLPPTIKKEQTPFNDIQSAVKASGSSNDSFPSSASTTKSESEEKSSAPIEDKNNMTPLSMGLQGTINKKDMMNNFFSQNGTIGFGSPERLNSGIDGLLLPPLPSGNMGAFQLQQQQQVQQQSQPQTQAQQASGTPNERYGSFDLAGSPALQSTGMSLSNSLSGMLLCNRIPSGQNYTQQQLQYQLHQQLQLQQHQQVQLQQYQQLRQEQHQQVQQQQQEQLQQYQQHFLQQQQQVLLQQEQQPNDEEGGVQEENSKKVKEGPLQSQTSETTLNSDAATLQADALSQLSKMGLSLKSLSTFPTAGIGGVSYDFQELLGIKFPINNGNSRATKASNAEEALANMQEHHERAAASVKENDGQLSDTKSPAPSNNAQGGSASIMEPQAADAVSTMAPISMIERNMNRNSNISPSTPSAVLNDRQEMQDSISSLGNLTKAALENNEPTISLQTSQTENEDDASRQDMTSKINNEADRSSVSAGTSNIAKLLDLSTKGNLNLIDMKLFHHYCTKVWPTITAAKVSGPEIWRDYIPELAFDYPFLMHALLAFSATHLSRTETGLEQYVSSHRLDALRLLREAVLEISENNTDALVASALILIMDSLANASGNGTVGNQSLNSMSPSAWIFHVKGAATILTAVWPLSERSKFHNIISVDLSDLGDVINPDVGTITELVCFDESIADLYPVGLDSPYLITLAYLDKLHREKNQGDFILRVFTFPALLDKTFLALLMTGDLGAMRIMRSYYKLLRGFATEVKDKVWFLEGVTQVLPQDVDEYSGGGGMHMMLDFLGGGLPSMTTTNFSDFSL
PROCEDURE_DETAILS: PBM E-score (8-mer binding enrichment) (E-score (-0.5 to 0.5)); higher = stronger / more preferred TF binding
EXPERIMENTAL_SETUP: protein concentration: 200 nM; construct: GST-full length
In all, about 33,000 sequences were measured (“E-score (-0.5 to 0.5)”: median about -0.043, highest 2% from about 0.37 on). The sample as a whole holds a higher share of the highest values than the screen did.
PARAMETER: PBM E-score

RECORD_SEQUENCE: GCTCTCAC
EXPERIMENTAL_RESULT: -0.32

RECORD_SEQUENCE: TCAGGCAA
EXPERIMENTAL_RESULT: -0.146

RECORD_SEQUENCE: ACTCGTAA
EXPERIMENTAL_RESULT: 0.433

RECORD_SEQUENCE: CTACAACC
EXPERIMENTAL_RESULT: 0.0888

RECORD_SEQUENCE: GGTTGCTA
EXPERIMENTAL_RESULT: -0.126

RECORD_SEQUENCE: ATGTGAAT
EXPERIMENTAL_RESULT: 0.12

RECORD_SEQUENCE: AAACGCTT
EXPERIMENTAL_RESULT: 0.156

RECORD_SEQUENCE: CTTTTGGA
EXPERIMENTAL_RESULT: -0.147

RECORD_SEQUENCE: ACTCGGAT
EXPERIMENTAL_RESULT: 0.252

RECORD_SEQUENCE: GGACGATA
EXPERIMENTAL_RESULT: -0.181

RECORD_SEQUENCE: TGCACGAA
EXPERIMENTAL_RESULT: 0.145

RECORD_SEQUENCE: AGATAAAG
EXPERIMENTAL_RESULT: -0.0496

RECORD_SEQUENCE: AATCGATT
EXPERIMENTAL_RESULT: 0.128

RECORD_SEQUENCE: ACCATTAC
EXPERIMENTAL_RESULT: 0.17

RECORD_SEQUENCE: CTCTCTTC
EXPERIMENTAL_RESULT: -0.29

RECORD_SEQUENCE: CAACGATG
EXPERIMENTAL_RESULT: 0.0412

RECORD_SEQUENCE: GAGGTTTA
EXPERIMENTAL_RESULT: 0.0651

RECORD_SEQUENCE: AGCTCACT
EXPERIMENTAL_RESULT: -0.138

RECORD_SEQUENCE: CACATAGG
EXPERIMENTAL_RESULT: -0.207

RECORD_SEQUENCE: GTTTCACA
EXPERIMENTAL_RESULT: 0.00208

RECORD_SEQUENCE: GAACGGTA
EXPERIMENTAL_RESULT: 0.283

RECORD_SEQUENCE: ACTCGTAC
EXPERIMENTAL_RESULT: 0.472

RECORD_SEQUENCE: CCTTCCAA
EXPERIMENTAL_RESULT: -0.216

RECORD_SEQUENCE: CGTACGCA
EXPERIMENTAL_RESULT: 0.345

RECORD_SEQUENCE: AGGTTACG
EXPERIMENTAL_RESULT: 0.221

RECORD_SEQUENCE: GCAGTTAA
EXPERIMENTAL_RESULT: 0.0277

RECORD_SEQUENCE: AGCCACAC
EXPERIMENTAL_RESULT: -0.00233

RECORD_SEQUENCE: ACTATCAC
EXPERIMENTAL_RESULT: 0.0913

RECORD_SEQUENCE: ATTCAAAA
EXPERIMENTAL_RESULT: 0.0167

RECORD_SEQUENCE: GAGTGAGA
EXPERIMENTAL_RESULT: -0.214

RECORD_SEQUENCE: AATACGAA
EXPERIMENTAL_RESULT: 0.424

RECORD_SEQUENCE: CTTCTCGA
EXPERIMENTAL_RESULT: -0.187

RECORD_SEQUENCE: ACTGACTC
EXPERIMENTAL_RESULT: -0.192

RECORD_SEQUENCE: GCTCGTCC
EXPERIMENTAL_RESULT: -0.249

RECORD_SEQUENCE: AAACGCTG
EXPERIMENTAL_RESULT: 0.244

RECORD_SEQUENCE: ACCCTGGC
EXPERIMENTAL_RESULT: -0.206

RECORD_SEQUENCE: AATACGTA
EXPERIMENTAL_RESULT: 0.196

RECORD_SEQUENCE: AAGAGTAG
EXPERIMENTAL_RESULT: -0.128

RECORD_SEQUENCE: ACTACGAA
EXPERIMENTAL_RESULT: 0.185

RECORD_SEQUENCE: CTCTTGCC
EXPERIMENTAL_RESULT: -0.16

RECORD_SEQUENCE: ATGGGTTA
EXPERIMENTAL_RESULT: -0.00164

RECORD_SEQUENCE: ACTCGTCC
EXPERIMENTAL_RESULT: -0.141

RECORD_SEQUENCE: AAACGATT
EXPERIMENTAL_RESULT: 0.449

RECORD_SEQUENCE: GAACGATC
EXPERIMENTAL_RESULT: 0.429

RECORD_SEQUENCE: ACAACTAC
EXPERIMENTAL_RESULT: -0.129

RECORD_SEQUENCE: TGTACAAA
EXPERIMENTAL_RESULT: 0.0122
